target: Epidermal growth factor receptor (Homo sapiens) (UniProt P00533); assay: EGFR binders on small-molecule microarrays, primary screen, biochemical, small-molecule microarray, 635 nm fluorescence (AID 1104); settings: EGFR binding, higher = more signal;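 further: score merges 667 nm emission intensity with spot signal to noise over triplicate slides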
Sequence (P00533 whole entry, looked up): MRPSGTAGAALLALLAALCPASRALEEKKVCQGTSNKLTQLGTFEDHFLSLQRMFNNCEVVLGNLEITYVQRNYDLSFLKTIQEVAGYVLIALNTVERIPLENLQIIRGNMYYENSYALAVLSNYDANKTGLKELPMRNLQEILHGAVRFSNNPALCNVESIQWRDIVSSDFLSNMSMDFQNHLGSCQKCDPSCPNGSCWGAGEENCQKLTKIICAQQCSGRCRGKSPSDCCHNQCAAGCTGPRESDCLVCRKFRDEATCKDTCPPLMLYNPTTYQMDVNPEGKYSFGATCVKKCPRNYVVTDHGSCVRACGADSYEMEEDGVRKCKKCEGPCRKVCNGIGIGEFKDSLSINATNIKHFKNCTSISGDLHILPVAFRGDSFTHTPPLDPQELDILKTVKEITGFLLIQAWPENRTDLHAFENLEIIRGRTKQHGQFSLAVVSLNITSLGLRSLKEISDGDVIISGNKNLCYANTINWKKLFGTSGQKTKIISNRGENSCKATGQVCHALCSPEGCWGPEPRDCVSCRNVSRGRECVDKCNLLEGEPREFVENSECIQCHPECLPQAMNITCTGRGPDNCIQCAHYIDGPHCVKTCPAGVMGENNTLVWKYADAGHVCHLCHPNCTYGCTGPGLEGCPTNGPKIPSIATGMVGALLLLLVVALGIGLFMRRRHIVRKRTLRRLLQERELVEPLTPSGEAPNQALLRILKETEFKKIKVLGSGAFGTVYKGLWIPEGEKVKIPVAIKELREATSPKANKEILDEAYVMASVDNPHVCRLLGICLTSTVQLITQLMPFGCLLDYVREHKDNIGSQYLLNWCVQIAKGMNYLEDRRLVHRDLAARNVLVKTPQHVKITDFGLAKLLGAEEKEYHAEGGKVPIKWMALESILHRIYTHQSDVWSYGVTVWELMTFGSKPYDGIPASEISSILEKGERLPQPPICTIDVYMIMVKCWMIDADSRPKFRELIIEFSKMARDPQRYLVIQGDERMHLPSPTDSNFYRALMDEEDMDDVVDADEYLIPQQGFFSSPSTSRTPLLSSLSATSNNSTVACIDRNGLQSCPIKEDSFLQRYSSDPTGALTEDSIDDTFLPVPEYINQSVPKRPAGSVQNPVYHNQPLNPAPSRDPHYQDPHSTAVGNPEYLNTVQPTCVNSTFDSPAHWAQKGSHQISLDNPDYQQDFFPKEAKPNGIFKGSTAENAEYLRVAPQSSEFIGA
Endpoint label: composite z-score

>  <Molecule>
CC(C)CON=C1C[C@@H](O)[C@@H](O)[C@@H]2[C@@H]3C(=O)N(Cc4ccc5c(c4)OCO5)C(=O)[C@@H]3CC[C@@H]12

>  <Target or test system>
Epidermal growth factor receptor (Homo sapiens) (UniProt P00533)

>  <composite z-score>
-0.203

$$$$
>  <Molecule>
CON=C[C@@H](OC)[C@H](C)C=CCC(=O)OC

>  <Target or test system>
Epidermal growth factor receptor (Homo sapiens) (UniProt P00533)

>  <composite z-score>
0.327

$$$$

Identify measured composite z-score obtained with Epidermal growth factor receptor (Homo sapiens) (UniProt P00533) for O=C1[C@H]2[C@H]3[C@H](O)[C@H](O)CC(=NO[C@@H]4O[C@H](CO)[C@@H](O)[C@H](O)[C@H]4O)[C@@H]3CC[C@H]2C(=O)N1c1cccc(Oc2ccccc2)c1 .
0.778

Identify measured composite z-score obtained with Epidermal growth factor receptor (Homo sapiens) (UniProt P00533) for COC(=O)[C@H](C)NC(=O)CCC1CC(OC(=O)NCc2cccc3ccccc23)CC2(CCCC(COC(=O)NCc3ccccc3)O2)O1 (some centres not stated) .
0.445

Identify measured composite z-score obtained with Epidermal growth factor receptor (Homo sapiens) (UniProt P00533) for CC(C)[C@@H](OCc1ccccc1)[C@H](C)C=NO[C@H](C)c1cn([C@@H]2COC[C@H]2O)nn1 .
0.556

Identify measured composite z-score obtained with Epidermal growth factor receptor (Homo sapiens) (UniProt P00533) for CC(CCC(=O)OC[C@H]1O[C@H](C#Cc2ccccc2)C=C[C@@H]1Oc1ccc(C)cc1)=NOC(C)CN1CCCc2nc(C)c(C)cc21 (some centres not stated) .
0.335

Identify measured composite z-score obtained with Epidermal growth factor receptor (Homo sapiens) (UniProt P00533) for CCN1C(=O)[C@H]2[C@H]3[C@H](O)[C@H](O)CC(=NNC(=O)OCc4ccccc4)[C@H]3CC[C@H]2C1=O .
-0.198

---

molecular target: Concanavalin-A (Canavalia ensiformis) (UniProt P02866); test: ConA small-molecule binders, primary screen, artefact control for SMM control protein annotation, biochemical, small-molecule microarray, Alexa647 label, 635 nm (AID 1127); settings: ConA-A647 binding fluorescence, higher = more signal;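 further: z combines 667 nm emission intensity with signal-to-noise across three replicate slides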
Sequence (P02866 whole entry, looked up): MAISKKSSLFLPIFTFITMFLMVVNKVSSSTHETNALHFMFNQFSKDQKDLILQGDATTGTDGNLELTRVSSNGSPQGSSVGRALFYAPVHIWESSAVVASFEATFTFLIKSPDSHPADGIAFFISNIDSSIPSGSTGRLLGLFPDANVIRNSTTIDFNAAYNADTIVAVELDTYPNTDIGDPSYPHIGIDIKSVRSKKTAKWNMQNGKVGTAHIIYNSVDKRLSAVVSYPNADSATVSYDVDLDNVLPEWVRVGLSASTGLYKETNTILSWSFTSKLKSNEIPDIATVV
Endpoint label: composite z-score
Number only, please.

>  <Compound>
COC(=O)[C@H](C)NC(=O)CCC1CC(OC(=O)NCc2ccc3c(c2)OCO3)CC2(CCCC(COC(=O)NCc3ccccc3)O2)O1 (stereo partly drawn)

>  <composite z-score>
0.829

$$$$

Please give measured composite z-score of the following entry: CC1(C)O[C@H]2OC([C@H](O)CON3C(=O)c4ccccc4C3=O)[C@H](O)[C@H]2O1 (stereo partly drawn)
-0.371

Please give measured composite z-score of the following entry: O=C1C2=CC[C@H]3C(=O)N(C[C@@H]4CCCO4)C(=O)[C@H]3[C@H]2[C@H](O)[C@@H]2O[C@H]12
0.397

Please give measured composite z-score of the following entry: CCCNC(=O)OC[C@H]1O[C@H](CCON=C[C@@H](NS(=O)(=O)c2ccc(C)cc2)[C@H](C)C=CCC(=O)OC)C=C[C@@H]1Oc1ccc(OC)cc1
-1.46
